Assay: Rate of hydrolysis of 5-fluoro-2'-deoxyuridine derivatives by esterase
Format: in vitro ADME, porcine
Conditions: pig, liver esterase, pH 7, enzyme concentration 6.0 units/ml, pH 7.00, 37° C.; read-out: t 1/2 (time for 1/2 of the derivative to be converted into parent compound)
Observed property: half-life (h)

• O=C(O)CCCCC(=O)OC[C@H]1O[C@@H](n2cc(F)c(=O)[nH]c2=O)C[C@@H]1OC(=O)CCCCC(=O)O = 7.31
• CCC(=O)OC[C@H]1O[C@@H](n2cc(F)c(=O)[nH]c2=O)C[C@@H]1OC(=O)CC = 0.403

---

Assay: Rate of hydrolysis of 5-fluoro-2'-deoxyuridine derivatives by esterase
Format: in vitro ADME, porcine
Conditions: pig, liver esterase, pH 7, enzyme concentration 0.6 units/ml, pH 7.00, 37° C.; read-out: t 1/2 (time for 1/2 of the derivative to be converted into parent compound)
Observed property: half-life (h)

* CCCCCCCCCC(=O)OC[C@H]1O[C@@H](n2cc(F)c(=O)[nH]c2=O)C[C@@H]1OC(=O)CCCCCCCCC | 1.2

---

# ILS (%) listing for each entry below
Test system: mouse leukemia L1210
Assay: Antitumor activity against mouse leukemia L1210, oral administration
Assay type: in vivo, BDF1 mice
Conditions: days 1, 3, 5, dose 100 mg/kg/day
Observed property: ILS (%)

- CCCCCCCC(=O)OC[C@H]1O[C@@H](n2cc(F)c(=O)[nH]c2=O)C[C@@H]1OC(=O)CCCCCCC [reference compound]: -5
- O=c1[nH]c(=O)n([C@H]2C[C@H](O)[C@@H](CO)O2)cc1F [5-fluoro-2'-deoxyuridine]: 15
- CCCCCCCCCC(=O)OC[C@H]1O[C@@H](n2cc(F)c(=O)[nH]c2=O)C[C@@H]1OC(=O)CCCCCCCCC: 15
- CCCCCCCCCCCCCC(=O)OC[C@H]1O[C@@H](n2cc(F)c(=O)[nH]c2=O)C[C@@H]1OC(=O)CCCCCCCCCCCCC: 17
- CCCCCCCCCCCC(=O)OC[C@H]1O[C@@H](n2cc(F)c(=O)[nH]c2=O)C[C@@H]1OC(=O)CCCCCCCCCCC: 15

---

Assay: Rate of hydrolysis of 5-fluoro-2'-deoxyuridine derivatives by esterase
Type: in vitro ADME, porcine
Conditions: pig, liver esterase, pH 7, enzyme concentration 3.0 units/ml, pH 7.00, 37° C.; read-out: t 1/2 (time for 1/2 of the derivative to be converted into parent compound)
Observed property: half-life (min)

• CCC(=O)OC[C@H]1O[C@@H](n2cc(F)c(=O)[nH]c2=O)C[C@@H]1OC(=O)CC = 47.4

---

Assay: Rate of hydrolysis of 5-fluoro-2'-deoxyuridine derivatives by esterase
Type: in vitro ADME, porcine
Conditions: pig, liver esterase, pH 7, enzyme concentration 150.0 units/ml, pH 7.00, 37° C.; read-out: t 1/2 (time for 1/2 of the derivative to be converted into parent compound)
Observed property: half-life (h)

- CCCCCCCCCCCC(=O)OC[C@H]1O[C@@H](n2cc(F)c(=O)[nH]c2=O)C[C@@H]1OC(=O)CCCCCCCCCCC: 66.7
- O=C(O)CCCC(=O)OC[C@H]1O[C@@H](n2cc(F)c(=O)[nH]c2=O)C[C@@H]1OC(=O)CCCC(=O)O: 7.29
- O=C(O)CCC(=O)OC[C@H]1O[C@@H](n2cc(F)c(=O)[nH]c2=O)C[C@@H]1OC(=O)CCC(=O)O: 53.7

---

Test: Rate of hydrolysis of 5-fluoro-2'-deoxyuridine derivatives by esterase
Format: in vitro ADME, porcine
Conditions: pig, liver esterase, pH 7, enzyme concentration 0.15 units/ml, pH 7.00, 37° C.; read-out: t 1/2 (time for 1/2 of the derivative to be converted into parent compound)
Protocol: Rate of hydrolysis of 5-fluoro-2'-deoxyuridine derivatives by esterase […] A 10 μg/ml isotonic solution of the experimental compound in a phosphate buffer (pH 7.00) was prepared and the […] (manufactured by Sigma) extracted from the porcine liver was added to the solution at 37° C. in such a way as to provide the enzyme concentration ranging from 0.03 units/ml to 150 units/ml. […]
Observed property: half-life (min)

* CCCCCC(=O)OC[C@H]1O[C@@H](n2cc(F)c(=O)[nH]c2=O)C[C@@H]1OC(=O)CCCCC [reference compound] | 10

---

Assay: Change in body weight of L1210-bearing mice, oral administration
Format: in vivo, BDF1 mice
Details: dose 100 mg/kg/day, days 1-4
Observed property: Change in body weight (1-4 d, g/mouse)

* CCCCCCCCCCCCCC(=O)OC[C@H]1O[C@@H](n2cc(F)c(=O)[nH]c2=O)C[C@@H]1OC(=O)CCCCCCCCCCCCC | -2.4
* CCCCCCCCCCCC(=O)OC[C@H]1O[C@@H](n2cc(F)c(=O)[nH]c2=O)C[C@@H]1OC(=O)CCCCCCCCCCC | 0
* CCCCCCCCCC(=O)OC[C@H]1O[C@@H](n2cc(F)c(=O)[nH]c2=O)C[C@@H]1OC(=O)CCCCCCCCC | -2.4
* O=c1[nH]c(=O)n([C@H]2C[C@H](O)[C@@H](CO)O2)cc1F | -4.2
* CCCCCCCC(=O)OC[C@H]1O[C@@H](n2cc(F)c(=O)[nH]c2=O)C[C@@H]1OC(=O)CCCCCCC [reference compound] | -2.8

---

Experiment: Rate of hydrolysis of 5-fluoro-2'-deoxyuridine derivatives by esterase
Assay type: in vitro ADME, porcine
Settings: pig, liver esterase, pH 7, enzyme concentration 0.045 units/ml, pH 7.00, 37° C.; read-out: t 1/2 (time for 1/2 of the derivative to be converted into parent compound)
Observed property: half-life (min)

* CCCCCC(=O)OC[C@H]1O[C@@H](n2cc(F)c(=O)[nH]c2=O)C[C@@H]1OC(=O)CCCCC [reference compound] | 32.5
* CCCCCCCC(=O)OC[C@H]1O[C@@H](n2cc(F)c(=O)[nH]c2=O)C[C@@H]1OC(=O)CCCCCCC [reference compound] | 15.6

---

Test: Rate of hydrolysis of 5-fluoro-2'-deoxyuridine derivatives by esterase
Type: in vitro ADME, porcine
Details: pig, liver esterase, pH 7, enzyme concentration 12.0 units/ml, pH 7.00, 37° C.; read-out: t 1/2 (time for 1/2 of the derivative to be converted into parent compound)
Method: Rate of hydrolysis of 5-fluoro-2'-deoxyuridine derivatives by esterase […] A 10 μg/ml isotonic solution of the experimental compound in a phosphate buffer (pH 7.00) was prepared and the […] (manufactured by Sigma) extracted from the porcine liver was added to the solution at 37° C. in such a way as to provide the enzyme concentration ranging from 0.03 units/ml to 150 units/ml. […]
Observed property: half-life (h)

* O=C(O)CCCCC(=O)OC[C@H]1O[C@@H](n2cc(F)c(=O)[nH]c2=O)C[C@@H]1OC(=O)CCCCC(=O)O | 3.61

---

Tested on: mouse leukemia L1210
Experiment: Antitumor activity against mouse leukemia L1210, oral administration
Assay type: in vivo, BDF1 mice
Settings: days 1, 3, 5, dose 30 mg/kg/day
Observed property: ILS (%)

• O=c1[nH]c(=O)n([C@H]2C[C@H](O)[C@@H](CO)O2)cc1F = 10
• CCCCCCCCCCCCCC(=O)OC[C@H]1O[C@@H](n2cc(F)c(=O)[nH]c2=O)C[C@@H]1OC(=O)CCCCCCCCCCCCC = 33
• CCCCCCCC(=O)OC[C@H]1O[C@@H](n2cc(F)c(=O)[nH]c2=O)C[C@@H]1OC(=O)CCCCCCC [reference compound] = 3
• CCCCCCCCCCCC(=O)OC[C@H]1O[C@@H](n2cc(F)c(=O)[nH]c2=O)C[C@@H]1OC(=O)CCCCCCCCCCC = 5
• CCCCCCCCCC(=O)OC[C@H]1O[C@@H](n2cc(F)c(=O)[nH]c2=O)C[C@@H]1OC(=O)CCCCCCCCC = 26

---

Experiment: Release of FUdR from the compound due to the enzyme system in the plasma
Type: in vitro ADME
Settings: after 100 min; 4×10^-5 M compound (FUdR 9.85 μg/ml), 20% rat plasma, pH 7.0, 37° C.
# Release rate of 5-fluoro-2'-deoxyuridine listing for each entry below
Observed property: Release rate of 5-fluoro-2'-deoxyuridine (µg/mL)

• CCCCCC(=O)OC[C@H]1O[C@@H](n2cc(F)c(=O)[nH]c2=O)C[C@@H]1OC(=O)CCCCC [reference compound] = 7.8
• CCCCCCCCCC(=O)OC[C@H]1O[C@@H](n2cc(F)c(=O)[nH]c2=O)C[C@@H]1OC(=O)CCCCCCCCC = 4.7
• CCCCCCCCCCCC(=O)OC[C@H]1O[C@@H](n2cc(F)c(=O)[nH]c2=O)C[C@@H]1OC(=O)CCCCCCCCCCC = 1.2
• CCCCCCCC(=O)OC[C@H]1O[C@@H](n2cc(F)c(=O)[nH]c2=O)C[C@@H]1OC(=O)CCCCCCC [reference compound] = 9.85
